Target: hK6 (Homo sapiens, UniProt Q92876)
Experiment: Surface plasmon resonance, APPI on nickel chip, hK6 analyte
Type: binding
Conditions: SPR, 25° C.
Property Measured: Kd (pM)
# output: bare number, implied unit pM

Q) # query: Kd of entry SEQ ID NO: 13: APPI variant, EVCSEQAETGPCRALFFRWYFDVTEGKCAPFVYGGCGGNRNNFDTEEYCMAVCGSAI
A) 351

====

Target: mesotrypsin (Homo sapiens)
Sequence (P35030 81-304 limits assumed): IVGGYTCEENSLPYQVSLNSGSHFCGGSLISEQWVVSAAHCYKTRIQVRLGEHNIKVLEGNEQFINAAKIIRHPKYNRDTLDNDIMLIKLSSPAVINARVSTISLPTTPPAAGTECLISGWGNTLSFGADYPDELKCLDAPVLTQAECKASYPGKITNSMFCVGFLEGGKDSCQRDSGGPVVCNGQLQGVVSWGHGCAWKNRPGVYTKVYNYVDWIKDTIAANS
Assay: Mesotrypsin inhibition, cleavage of Z-GPR-pNA
Type: biochemical
Parameters: made in house
Settings: Example 10; read-out: Ki (mesotrypsin activity)
Property Measured: pKi
On this scale, pKi is minus log10 of a concentration expressed in M (mol/L).

Q) What does the record list as pKi for SEQ ID NO: 13: APPI variant, EVCSEQAETGPCRALFFRWYFDVTEGKCAPFVYGGCGGNRNNFDTEEYCMAVCGSAI ?
A) 8.27
